Record form. Attribute: EC50. Fill in for each entry.
# EXPERIMENTAL TARGET: T1, LILRA1 expressed on cells (human, UniProt O75019 17-489)
# T1 construct: whole, on cells; GFP-tagged; also called human LILRA1; CHO-LILRA1
# T1 sequence (O75019 17-489): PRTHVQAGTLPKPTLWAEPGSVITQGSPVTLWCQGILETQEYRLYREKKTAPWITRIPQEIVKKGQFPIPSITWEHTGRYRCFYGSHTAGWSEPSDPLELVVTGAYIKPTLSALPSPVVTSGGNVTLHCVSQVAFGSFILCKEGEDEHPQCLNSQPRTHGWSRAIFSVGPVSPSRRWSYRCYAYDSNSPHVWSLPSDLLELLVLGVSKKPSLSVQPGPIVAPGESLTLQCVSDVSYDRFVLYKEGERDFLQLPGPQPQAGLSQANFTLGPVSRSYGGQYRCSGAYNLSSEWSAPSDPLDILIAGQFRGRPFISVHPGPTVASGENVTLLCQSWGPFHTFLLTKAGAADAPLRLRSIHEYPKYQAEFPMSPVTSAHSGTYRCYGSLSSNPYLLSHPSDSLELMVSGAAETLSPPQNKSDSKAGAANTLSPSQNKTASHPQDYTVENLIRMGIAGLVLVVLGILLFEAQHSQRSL
# PROTOCOL: flow cytometry on CHO-LILRA1 cells, non-linear fit of the curves of FIG. 26E
Answers are plain numbers, in µg/mL.

Past entries and their recorded results:
{"BINDER": "D2M002-126 (antibody, V domains shown, Humanized and optimized variant of D2M002-026) VH: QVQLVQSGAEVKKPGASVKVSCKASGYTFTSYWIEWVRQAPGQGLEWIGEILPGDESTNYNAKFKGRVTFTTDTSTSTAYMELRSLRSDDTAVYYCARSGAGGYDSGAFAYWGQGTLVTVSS VL: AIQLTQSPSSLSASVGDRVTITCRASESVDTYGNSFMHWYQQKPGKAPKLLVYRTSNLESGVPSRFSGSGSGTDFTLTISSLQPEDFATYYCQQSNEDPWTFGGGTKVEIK", "UNITS SYMBOL": "µg/mL", "NUMERIC VALUE": 0.102}
{"BINDER": "D2M002-103HV1 (antibody, V domains shown, Humanized and optimized variant of the D2M002-002 lineage) VH: QVQLVQSGAEVKKPGASVKVSCKASGYTFTRYVMHWVRQAPGQRLEWIGYINPNNEETKYSQKFKGRVTLTRDTSASTAYMELSSLRSEDTAVYYCARADLEILPYYDHARYAMDYWGQGTLVTVSS VL: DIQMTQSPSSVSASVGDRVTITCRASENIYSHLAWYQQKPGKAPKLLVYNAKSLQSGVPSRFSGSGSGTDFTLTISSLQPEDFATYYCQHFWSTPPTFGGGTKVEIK", "UNITS SYMBOL": "µg/mL", "NUMERIC VALUE": 0.157}
{"BINDER": "D2M002-002 (antibody, V domains shown, Hit from immunised mice; also called clone #2; anti-LILRB1/2 clone #2) VH: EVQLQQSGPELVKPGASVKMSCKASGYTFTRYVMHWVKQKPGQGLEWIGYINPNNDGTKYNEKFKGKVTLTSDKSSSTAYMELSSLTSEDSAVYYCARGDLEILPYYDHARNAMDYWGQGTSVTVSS VL: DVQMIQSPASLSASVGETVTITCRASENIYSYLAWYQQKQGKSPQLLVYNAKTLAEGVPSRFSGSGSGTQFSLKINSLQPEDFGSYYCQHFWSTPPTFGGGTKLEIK", "UNITS SYMBOL": "µg/mL", "NUMERIC VALUE": 0.474}

Please turn your attention to the following entry.
Look up EC50 of D2M002-026 (antibody, V domains shown, Hit; also called clone #26) VH: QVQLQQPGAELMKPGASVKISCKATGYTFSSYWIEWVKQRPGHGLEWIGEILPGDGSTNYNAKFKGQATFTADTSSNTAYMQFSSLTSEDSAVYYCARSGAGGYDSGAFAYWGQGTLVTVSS VL: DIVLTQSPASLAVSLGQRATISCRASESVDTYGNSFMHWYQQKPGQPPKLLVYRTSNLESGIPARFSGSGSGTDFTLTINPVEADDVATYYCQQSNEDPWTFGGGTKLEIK and report it.
0.0877
